Examples of substances with documented pIC50 follow.
System: human APOE RNA
Test: Dose-dependent inhibition of human APOE RNA in HepG2 cells, electroporation, 50,000 cells per well, RT-PCR normalized to GAPDH (Example 4, Tables 8-10)
Format: cell-based
Details: HepG2, electroporation, 24-hour treatment
pIC50: −log10 of the molar value. Strand notation (5' to 3'): a small letter for the sugar, then the base; units joined by * are phosphorothioate-linked, units joined directly phosphodiester-linked; [ ] holds rarer units or linkages, { } end groups; capitals alone tell only the bases. [ms] = mesyl phosphoramidate linkage; k = constrained ethyl (cEt); [5mC] = 5-methylcytosine; d = 2'-deoxy (DNA)

{"SUBSTANCE": "1746797 (k[5mC]*kT*dT[ms]dG[ms]dG[ms]kT*dG[ms]dA[ms]dA[ms]dT*d[5mC]*dT*dT*dT*dA[ms]dT*kT*dA[ms]kA*kA; antisense) [Compound 1746797]", "pIC50": 5.42}
{"SUBSTANCE": "1746785 (k[5mC]*kT*dT[ms]kG*dG[ms]dT[ms]dG[ms]dA[ms]dA[ms]dT*d[5mC]*dT*dT*dT*dA[ms]dT*kT*kA*dA[ms]kA; antisense) [Compound 1746785]", "pIC50": 5.98}
{"SUBSTANCE": "1746792 (k[5mC]*dT[ms]dT[ms]kG*dG[ms]kT*dG[ms]dA[ms]dA[ms]dT*d[5mC]*dT*dT*dT*dA[ms]dT*kT*kA*dA[ms]kA; antisense) [Compound 1746792]", "pIC50": 6.40}

###

System: human APOE RNA
Assay: Activity in APOE 1549 knock-in mice, single ICV bolus, 4 weeks (Example 8)
Type: in vivo
Settings: n = 2, single ICV bolus of 300 μg, four weeks post treatment, cortex, Table 18
Experimental: Modified oligonucleotides described above were tested in the 1549 APOE knock-in mouse model described above. APOE knock-in mice were divided into groups of either 2 or 6 mice each as described in the tables below. […] Four weeks post treatment, mice were sacrificed and RNA was extracted from cortical brain tissue and spinal cord for quantitative real-time RT-PCR analysis of RNA expression of APOE using primer probe set RTS3073 (described herein above). […]
Strand notation (5' to 3'): a small letter for the sugar, then the base; units joined by * are phosphorothioate-linked, units joined directly phosphodiester-linked; [ ] holds rarer units or linkages, { } end groups; capitals alone tell only the bases. [ms] = mesyl phosphoramidate linkage; e = 2'-O-(2-methoxyethyl) (MOE); [5mC] = 5-methylcytosine; d = 2'-deoxy (DNA)

{"SUBSTANCE": "1736525: 6-10-4 MOE gapmer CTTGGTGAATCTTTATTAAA, linkages sooosszzsssssssssss (e[5mC]*eTeTeGeG*eT*dG[ms]dA[ms]dA*dT*d[5mC]*dT*dT*dT*dA*dT*eT*eA*eA*eA) [compound 1736525]", "APOE RNA (% control) Cortex": 35}
{"SUBSTANCE": "1736523: 6-10-4 MOE gapmer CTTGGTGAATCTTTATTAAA, linkages ssoooszzssssssssoss (e[5mC]*eT*eTeGeGeT*dG[ms]dA[ms]dA*dT*d[5mC]*dT*dT*dT*dA*dT*eTeA*eA*eA) [compound 1736523]", "APOE RNA (% control) Cortex": 42}
{"SUBSTANCE": "1736520: 6-10-4 MOE gapmer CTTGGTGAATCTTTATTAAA, linkages sossoszzzssssssssss (e[5mC]*eTeT*eG*eGeT*dG[ms]dA[ms]dA[ms]dT*d[5mC]*dT*dT*dT*dA*dT*eT*eA*eA*eA) [compound 1736520]", "APOE RNA (% control) Cortex": 41}
{"SUBSTANCE": "1736521: 6-10-4 MOE gapmer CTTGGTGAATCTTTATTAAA, linkages sosssszzzsssssssoss (e[5mC]*eTeT*eG*eG*eT*dG[ms]dA[ms]dA[ms]dT*d[5mC]*dT*dT*dT*dA*dT*eTeA*eA*eA) [compound 1736521]", "APOE RNA (% control) Cortex": 52}
{"SUBSTANCE": "1736524: 6-10-4 MOE gapmer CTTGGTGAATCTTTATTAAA, linkages sssooozzssssssssoss (e[5mC]*eT*eT*eGeGeTdG[ms]dA[ms]dA*dT*d[5mC]*dT*dT*dT*dA*dT*eTeA*eA*eA) [compound 1736524]", "APOE RNA (% control) Cortex": 36}
{"SUBSTANCE": "1736527: 6-10-4 MOE gapmer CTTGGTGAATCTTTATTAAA, linkages sssooozzsssssssssss (e[5mC]*eT*eT*eGeGeTdG[ms]dA[ms]dA*dT*d[5mC]*dT*dT*dT*dA*dT*eT*eA*eA*eA) [compound 1736527]", "APOE RNA (% control) Cortex": 37}
{"SUBSTANCE": "1736526: 6-10-4 MOE gapmer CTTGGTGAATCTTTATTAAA, linkages ssoooszzsssssssssss (e[5mC]*eT*eTeGeGeT*dG[ms]dA[ms]dA*dT*d[5mC]*dT*dT*dT*dA*dT*eT*eA*eA*eA) [compound 1736526]", "APOE RNA (% control) Cortex": 35}
{"SUBSTANCE": "1736522: 6-10-4 MOE gapmer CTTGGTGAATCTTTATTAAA, linkages sooosszzssssssssoss (e[5mC]*eTeTeGeG*eT*dG[ms]dA[ms]dA*dT*d[5mC]*dT*dT*dT*dA*dT*eTeA*eA*eA) [compound 1736522]", "APOE RNA (% control) Cortex": 41}

###

Listed here: items and their measured APOE RNA (% control) Spinal Cord.
System: human APOE RNA
Test: Potency (dose response, ED50) in APOE C57BL/6NTac-Apoeem7250 knock-in mice, 4 weeks (Example 14)
Type: in vivo
Conditions: spinal cord, ICV dose 10 μg
Strand notation (5' to 3'): a small letter for the sugar, then the base; units joined by * are phosphorothioate-linked, units joined directly phosphodiester-linked; [ ] holds rarer units or linkages, { } end groups; capitals alone tell only the bases. [ms] = mesyl phosphoramidate linkage; e = 2'-O-(2-methoxyethyl) (MOE); k = constrained ethyl (cEt); [5mC] = 5-methylcytosine; d = 2'-deoxy (DNA)

{"SUBSTANCE": "1746809 (k[5mC]*dT[ms]kT*dG[ms]kG*dT[ms]dG[ms]dA[ms]dA[ms]dT*d[5mC]*dT*dT*dT*dA[ms]dT*dT[ms]kA*kA*kA; antisense) [Compound 1746809]", "APOE RNA (% control) Spinal Cord": 105}
{"SUBSTANCE": "1785598: modified oligonucleotide complementary to human APOE RNA (k[5mC]*kT*kT*dG[ms]dG[ms]dT[ms]dG[ms]dA[ms]dA[ms]dT*d[5mC]*dT*dT*dT*dA*dT[ms]kT*kA*dA[ms]kA; antisense) [compound 1785598]", "APOE RNA (% control) Spinal Cord": 97}
{"SUBSTANCE": "1778131: modified oligonucleotide complementary to human APOE RNA (eA*e[5mC]eTeTeGkG*dT*dG[ms]dA[ms]dA*dT*d[5mC]*dT*dT*dT*dA[ms]kTkT*eA*eA; antisense) [compound 1778131]", "APOE RNA (% control) Spinal Cord": 79}
{"SUBSTANCE": "1757575 (eA*e[5mC]eTeT*kG*kG*dT*dG[ms]dA[ms]dA[ms]dT*d[5mC]*dT*dT*dT*dA[ms]kT*eT*eA*eA; antisense) [Compound 1757575]", "APOE RNA (% control) Spinal Cord": 82}

###

Test system: human APOE RNA
Assay: Dose-dependent inhibition of human APOE RNA in differentiated SH-SY5Y cells, free uptake, 5 days (Example 5)
Format: cell-based
Conditions: 20,000 nM, 5 days (Table 14)
Experimental: Modified oligonucleotides selected from the examples above were tested at various doses in differentiated SH-SY5Y cells. The modified oligonucleotides were tested in a series of experiments that had the same culture conditions. Differentiated SH-SY5Y cells plated at a density of 10,000 cells per well were treated by free uptake with various concentrations of modified oligonucleotide as specified in the tables below. […]
Strand notation (5' to 3'): a small letter for the sugar, then the base; units joined by * are phosphorothioate-linked, units joined directly phosphodiester-linked; [ ] holds rarer units or linkages, { } end groups; capitals alone tell only the bases. [ms] = mesyl phosphoramidate linkage; e = 2'-O-(2-methoxyethyl) (MOE); k = constrained ethyl (cEt); [5mC] = 5-methylcytosine; d = 2'-deoxy (DNA)
Cut-off 10 % UTC on APOE RNA (% UTC), inclusive. At or above means label 1; below means label 0.

{"SUBSTANCE": "1778131: modified oligonucleotide complementary to human APOE RNA (eA*e[5mC]eTeTeGkG*dT*dG[ms]dA[ms]dA*dT*d[5mC]*dT*dT*dT*dA[ms]kTkT*eA*eA; antisense) [compound 1778131]", "ASSIGNED_CATEGORY": "label 1"}
{"SUBSTANCE": "1778130: modified oligonucleotide complementary to human APOE RNA (eA*e[5mC]eTeTeG*kG*dT*dG[ms]dA[ms]dA*dT*d[5mC]*dT*dT*dT*dA[ms]kTkT*eA*eA; antisense) [compound 1778130]", "ASSIGNED_CATEGORY": "label 1"}
{"SUBSTANCE": "1778128: modified oligonucleotide complementary to human APOE RNA (eA*e[5mC]eTeTkGkG*dT*dG[ms]dA[ms]dA*dT*d[5mC]*dT*dT*dT*dA[ms]kTeT*eA*eA; antisense) [compound 1778128]", "ASSIGNED_CATEGORY": "label 1"}
{"SUBSTANCE": "1785598: modified oligonucleotide complementary to human APOE RNA (k[5mC]*kT*kT*dG[ms]dG[ms]dT[ms]dG[ms]dA[ms]dA[ms]dT*d[5mC]*dT*dT*dT*dA*dT[ms]kT*kA*dA[ms]kA; antisense) [compound 1785598]", "ASSIGNED_CATEGORY": "label 1"}
{"SUBSTANCE": "1785599: modified oligonucleotide complementary to human APOE RNA (k[5mC]*kT*kT*dG[ms]dG[ms]dT[ms]dG[ms]dA[ms]dA[ms]dT[ms]d[5mC]*dT*dT*dT*dA*dT*kT*kA*dA[ms]kA; antisense) [compound 1785599]", "ASSIGNED_CATEGORY": "label 0"}
{"SUBSTANCE": "1746804 (k[5mC]*kT*kT*dG[ms]dG[ms]dT[ms]dG[ms]dA[ms]dA[ms]dT*d[5mC]*dT*dT*dT*dA[ms]dT*dT[ms]kA*kA*kA; antisense) [Compound 1746804]", "ASSIGNED_CATEGORY": "label 1"}
{"SUBSTANCE": "Aes^mCeoTeoTesGesGksTdsGdzAdzAdzTds^mCdsTdsTdsTdsAdzTksTksAesAe (eA*e[5mC]eTeT*eG*kG*dT*dG[ms]dA[ms]dA[ms]dT*d[5mC]*dT*dT*dT*dA[ms]kT*kT*eA*eA) [Compound No. 1757576]", "ASSIGNED_CATEGORY": "label 0"}

Data provenance: patent US20250353873A1
